# Tested on: PXR:RXRa (NR concentration 270 nM, RXRa partner concentration 90 nM)
# runDescription: PBM binding z-score (relative to random genomic background probes); higher = stronger binding; sequences stand for … in GC…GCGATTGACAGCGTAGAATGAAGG
assayMetric: PBM binding z-score

sequencedata=TAGCCTAGGTCATGGGCCAGTATCCCACGCGAAC subjectoftest="PXR:RXRa (NR concentration 270 nM, RXRa partner concentration 90 nM)" readoutnumber=1.43
sequencedata=AGAACGAGGGCAGGCTGAGTTGATAGCAGAGTAG subjectoftest="PXR:RXRa (NR concentration 270 nM, RXRa partner concentration 90 nM)" readoutnumber=0.169
sequencedata=TGAATGACGTTATAAGATCAGGGAACGTTGCAAA subjectoftest="PXR:RXRa (NR concentration 270 nM, RXRa partner concentration 90 nM)" readoutnumber=-0.0188
sequencedata=AGTAAAAGTTCAGGACGAGGTAACGTAAAGCACG subjectoftest="PXR:RXRa (NR concentration 270 nM, RXRa partner concentration 90 nM)" readoutnumber=2.71
sequencedata=GCAGACAGGTAAAACGCAGGTAACTCAGGGTGGC subjectoftest="PXR:RXRa (NR concentration 270 nM, RXRa partner concentration 90 nM)" readoutnumber=-0.561
sequencedata=ATTGAAAGGTCGACGAGGTGAGTATACACCGTTT subjectoftest="PXR:RXRa (NR concentration 270 nM, RXRa partner concentration 90 nM)" readoutnumber=3.19
sequencedata=TTACCAAGGTGAGCTGAGATCGTTGATCCAACTC subjectoftest="PXR:RXRa (NR concentration 270 nM, RXRa partner concentration 90 nM)" readoutnumber=0.00925
sequencedata=CATATTAGTTGACCATAAGGGCAACCGAAGCTCG subjectoftest="PXR:RXRa (NR concentration 270 nM, RXRa partner concentration 90 nM)" readoutnumber=0.825
sequencedata=ACAGACAGGTGATGAAGGTAACTCATGCTATCAT subjectoftest="PXR:RXRa (NR concentration 270 nM, RXRa partner concentration 90 nM)" readoutnumber=-0.216
sequencedata=TCTTGTAGATCGGCAGGTTAAGAAAGCTGGCCAA subjectoftest="PXR:RXRa (NR concentration 270 nM, RXRa partner concentration 90 nM)" readoutnumber=0.349
sequencedata=TCTAGTTGGTCAAAAGTCACACACTCGAAATGCG subjectoftest="PXR:RXRa (NR concentration 270 nM, RXRa partner concentration 90 nM)" readoutnumber=1.02
sequencedata=CCGACTTGGGCAGAAAGGTTACCATACCATCCGG subjectoftest="PXR:RXRa (NR concentration 270 nM, RXRa partner concentration 90 nM)" readoutnumber=0.592
sequencedata=GTTGCTAGGTCAGGTTGGTCAGCTAACGGGTACG subjectoftest="PXR:RXRa (NR concentration 270 nM, RXRa partner concentration 90 nM)" readoutnumber=0.651
sequencedata=ACTAGCAGGCCTAGTTTGGGTCACTCAAACAAAG subjectoftest="PXR:RXRa (NR concentration 270 nM, RXRa partner concentration 90 nM)" readoutnumber=0.282
sequencedata=TAGCCTAGGTCATTCCGGGGCCAGTATAGAAAGC subjectoftest="PXR:RXRa (NR concentration 270 nM, RXRa partner concentration 90 nM)" readoutnumber=2.65
sequencedata=TCTGCTAGGTAAACGATGGTCAGCTAATCTGCTA subjectoftest="PXR:RXRa (NR concentration 270 nM, RXRa partner concentration 90 nM)" readoutnumber=-0.369
sequencedata=CCTACTGGGCCACGACAGGTCATTGATTCAGTGA subjectoftest="PXR:RXRa (NR concentration 270 nM, RXRa partner concentration 90 nM)" readoutnumber=1.97
sequencedata=GATACTGGGTCAGCTAGAGGCCAGAGTATGGAAA subjectoftest="PXR:RXRa (NR concentration 270 nM, RXRa partner concentration 90 nM)" readoutnumber=1.15
sequencedata=ATCGAAAGGTCGAAGTTGAGTATACCCACCCGAA subjectoftest="PXR:RXRa (NR concentration 270 nM, RXRa partner concentration 90 nM)" readoutnumber=3.05
sequencedata=CCGCCTGGGGCAAGGTTACCATAACGCACAGCCA subjectoftest="PXR:RXRa (NR concentration 270 nM, RXRa partner concentration 90 nM)" readoutnumber=0.34
sequencedata=AGTCAAAGTTCATCTAGCTAACGTAAGATATGCT subjectoftest="PXR:RXRa (NR concentration 270 nM, RXRa partner concentration 90 nM)" readoutnumber=4.83
sequencedata=TCTAGTTGATCACGGAGGTCACACACGACGGGTA subjectoftest="PXR:RXRa (NR concentration 270 nM, RXRa partner concentration 90 nM)" readoutnumber=4.29
sequencedata=AGAATGAGGTTACCAAAGATCAGGAAAACGCTTG subjectoftest="PXR:RXRa (NR concentration 270 nM, RXRa partner concentration 90 nM)" readoutnumber=1.57
sequencedata=GCTTGTCGATCAAGGTTAAGAAAGACTAAGCTAA subjectoftest="PXR:RXRa (NR concentration 270 nM, RXRa partner concentration 90 nM)" readoutnumber=0.592
sequencedata=CAAACTAGCTCAAAGGTCAAAGTCGAGCCAACCA subjectoftest="PXR:RXRa (NR concentration 270 nM, RXRa partner concentration 90 nM)" readoutnumber=5.37
sequencedata=TATTGTAGATCAACAGGAGGTTAAGAAAGATCGA subjectoftest="PXR:RXRa (NR concentration 270 nM, RXRa partner concentration 90 nM)" readoutnumber=0.93
sequencedata=AATACAGGGTCATCGTAGGCCAGAGGACGCACAG subjectoftest="PXR:RXRa (NR concentration 270 nM, RXRa partner concentration 90 nM)" readoutnumber=4.85
sequencedata=CCTACTGGGCCACGAAAAGTCATTGATTCAGTGA subjectoftest="PXR:RXRa (NR concentration 270 nM, RXRa partner concentration 90 nM)" readoutnumber=-0.419
sequencedata=AATACAGGGTCCCTAGGCCAGAGTAGGTACGAAT subjectoftest="PXR:RXRa (NR concentration 270 nM, RXRa partner concentration 90 nM)" readoutnumber=-0.49
sequencedata=CCTAGCAGGCCAGGGTCACTGAAGCATTTCGCTT subjectoftest="PXR:RXRa (NR concentration 270 nM, RXRa partner concentration 90 nM)" readoutnumber=3.04
sequencedata=GCCACTGGGGCATCAGCAGGTTACCATAACTTAA subjectoftest="PXR:RXRa (NR concentration 270 nM, RXRa partner concentration 90 nM)" readoutnumber=-0.0612
sequencedata=AATACAGGGTCACTAGGCCAGAATAGGTACGAAT subjectoftest="PXR:RXRa (NR concentration 270 nM, RXRa partner concentration 90 nM)" readoutnumber=3.16
sequencedata=CTCGAAAGGTCGGTTGATGTGAGTATACGGATAA subjectoftest="PXR:RXRa (NR concentration 270 nM, RXRa partner concentration 90 nM)" readoutnumber=1.07
sequencedata=TCTCGGAGGACAGGAAAGGTCAGAGCTCGACATC subjectoftest="PXR:RXRa (NR concentration 270 nM, RXRa partner concentration 90 nM)" readoutnumber=3.36
sequencedata=CTCGAAAGGTCGGTAGAGGTGAGTATACGGATAA subjectoftest="PXR:RXRa (NR concentration 270 nM, RXRa partner concentration 90 nM)" readoutnumber=2.69
sequencedata=CAGCCTAGCTCAGGGCCAGTATAGGAGGAACGTT subjectoftest="PXR:RXRa (NR concentration 270 nM, RXRa partner concentration 90 nM)" readoutnumber=-0.988
sequencedata=TTACCAAGGTGAAGGTCGTAGATCCCTCTGTAGA subjectoftest="PXR:RXRa (NR concentration 270 nM, RXRa partner concentration 90 nM)" readoutnumber=0.858
sequencedata=GCTAGTCGGTCAGTAAAAGGTCACACACCGGTCG subjectoftest="PXR:RXRa (NR concentration 270 nM, RXRa partner concentration 90 nM)" readoutnumber=5.25
sequencedata=ATCTCTAGTTAAAGATAGTTCAGTGAATGCAAAT subjectoftest="PXR:RXRa (NR concentration 270 nM, RXRa partner concentration 90 nM)" readoutnumber=0.98
sequencedata=CAAACTAGGTCACCGGAAGTTCAAAGTCCGCATG subjectoftest="PXR:RXRa (NR concentration 270 nM, RXRa partner concentration 90 nM)" readoutnumber=6.19
sequencedata=CAAACTAGGTCTAGGTCAAAGTCGGTTTGTGCCA subjectoftest="PXR:RXRa (NR concentration 270 nM, RXRa partner concentration 90 nM)" readoutnumber=1.7
sequencedata=CCTACAGGGCCACGAAAGGTCATTGATTCAGTGA subjectoftest="PXR:RXRa (NR concentration 270 nM, RXRa partner concentration 90 nM)" readoutnumber=5.61
sequencedata=ATATGTAGGTTATCGGGTTATTCAGTTTGCGCAT subjectoftest="PXR:RXRa (NR concentration 270 nM, RXRa partner concentration 90 nM)" readoutnumber=1.88
sequencedata=TCTCGTAGATCAAGCAGGTTAAGAAAGCCTGAGT subjectoftest="PXR:RXRa (NR concentration 270 nM, RXRa partner concentration 90 nM)" readoutnumber=0.225
sequencedata=CCTTACGGGACACTCCAGGTTATAGCATCGGAGT subjectoftest="PXR:RXRa (NR concentration 270 nM, RXRa partner concentration 90 nM)" readoutnumber=0.0254
sequencedata=AGAATGAGGTGATTAAGATCAGGGAATTGCGGTC subjectoftest="PXR:RXRa (NR concentration 270 nM, RXRa partner concentration 90 nM)" readoutnumber=-0.0501
sequencedata=TGAATGAGGTTATAAGATCAGGCAACGTTGCAAA subjectoftest="PXR:RXRa (NR concentration 270 nM, RXRa partner concentration 90 nM)" readoutnumber=0.75
sequencedata=CCTTACGGGTCACTCCAGGCTATAGCATCGGAGT subjectoftest="PXR:RXRa (NR concentration 270 nM, RXRa partner concentration 90 nM)" readoutnumber=3.3
sequencedata=CGAACTAGGTCAAAGGTCAAAGTCGAGCCAACCA subjectoftest="PXR:RXRa (NR concentration 270 nM, RXRa partner concentration 90 nM)" readoutnumber=7.09
sequencedata=TCGAGTAGGTTAGTCTGGGCATTCAGCCAACATA subjectoftest="PXR:RXRa (NR concentration 270 nM, RXRa partner concentration 90 nM)" readoutnumber=-0.302
sequencedata=ACTCGGAAGACAAAGGTCAGAGCTACGCCAGTGA subjectoftest="PXR:RXRa (NR concentration 270 nM, RXRa partner concentration 90 nM)" readoutnumber=3.25
